From: patent US9981909B2

- Tested On: rat 5-HT7 receptor (Rattus norvegicus (Rat), UniProt P32305)
- Sequence (P32305 1-435): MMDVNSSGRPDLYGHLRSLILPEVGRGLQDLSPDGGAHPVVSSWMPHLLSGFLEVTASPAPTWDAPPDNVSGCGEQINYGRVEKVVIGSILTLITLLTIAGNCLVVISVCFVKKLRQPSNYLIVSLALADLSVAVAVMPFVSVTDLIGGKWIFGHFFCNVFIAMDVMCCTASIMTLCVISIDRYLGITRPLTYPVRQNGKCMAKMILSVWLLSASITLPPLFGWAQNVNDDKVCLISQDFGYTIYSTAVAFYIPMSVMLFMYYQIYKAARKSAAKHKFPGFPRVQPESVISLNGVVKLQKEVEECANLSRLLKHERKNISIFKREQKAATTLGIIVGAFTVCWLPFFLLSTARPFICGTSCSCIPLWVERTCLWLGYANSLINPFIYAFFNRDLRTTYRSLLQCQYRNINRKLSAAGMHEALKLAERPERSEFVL
- Run Description: r5-HT7 binding assay, competitive radioligand binding with [3H]5-CT
- Reported Conditions: rat 5-HT7, HEK-293 membranes
- Protocol: Receptor binding was performed using membrane fractions prepared from the HEK-293 cell line recombinantly expressing rat 5-HT7 receptors (NCBI accession NM_022938). Compound affinity for the rat 5-HT7 receptor subtype was evaluated by competitive radioligand binding assays using 5-carboxamido[^3H]tryptamine ([^3H]5-CT) (Amersham Biosciences, cat. 90000403) detection. […] Nonspecific binding was determined in the presence of 10 μM fluoxetine. […]
Counter-ions that a name gives are not always drawn.
Reported Metric: pKi
Worth noting: pKi values are minus log10 of concentrations stated in mol/L.

input: I would be grateful if you could share the reported pKi for O=C(c1cccc(Cl)c1)c1ccc(Cl)cc1OC1CNC1 .
output: 6.99

input: I would be grateful if you could share the reported pKi for Clc1ccc(Oc2ccc(Cl)cc2OC2CNC2)cc1 [Example 258, trifluoroacetate] .
output: 7.64

input: I would be grateful if you could share the reported pKi for Cc1ccc(Oc2cc(Cl)ccc2O[C@@H]2CCN(C)C2)cc1 .
output: 6.09

input: I would be grateful if you could share the reported pKi for C[C@@H]1[C@H](Oc2cc(Br)ccc2OCc2cccc(F)c2)CN1Cc1ccccc1 (relative stereo) .
output: 6.31
